B1: CPEB3 Ribozyme (parent)
chain: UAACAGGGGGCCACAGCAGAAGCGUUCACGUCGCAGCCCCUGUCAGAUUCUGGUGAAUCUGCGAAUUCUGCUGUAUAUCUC

Variants of: B1
ASSAY PROTOCOL: self-cleavage, relative activity (ratio to wild type); higher = more cleavage; in vitro, sequencing
MEASUREMENT LABEL: self-cleavage
Would you mind answering with just the numeric figure?

Could you tell me which self-cleavage is on file for A13G U48A ?
0.31

Same question for C27U U80C please.
0.58

# repeat for A13U C38A
0.12

Subsequent entry: A35G U78C
1.3

Also, C23U A77U please.
0.23

What about this variant? G33A U66A
0.18

Would you kindly repeat that for U1C U74G ?
1.19

Next up: G10A U25A
0.26

// same read-out, input: C34U U74A
0.52

Now consider C40U A64U and answer again.
0.27

Note, next up: U26A U60C
0.34

Would you mind doing G8A U43A as well?
0.27

And for C12A A13U ?
1.25

Could you do the same for A47G A57C , please?
0.36

What about this variant? G10U U48A
0.35

Same question, C12A U54A this time
1.1

Same for A5G U66A
0.23

Same lookup for U48C U49A , please.
0.48

Repeat for the following variant: A15G A28C
0.53

Further, for A3U A65G ?
0.54

Now give it for A5U U58C too.
0.61

Can you check C29U U58G next?
0.17

Same question for U31A A56G please.
0.48

Same question, A20U G63A this time
0.19

Item: A47G G61U
0.49

Moving on to C32U C59U
0.12

And what about the variant A3G U74G ?
1.24

What do we get for U31A U69G ?
0.27

How about C4U C23G ?
0.53
